# Protocol Notes: NCI Yeast Anticancer Drug Screen. Data for the bub3 strain (AID 167)
# Condition Parameters: S. cerevisiae bub3 mutant strain, at 50.0 µM, hits give high values
About 79,000 compounds went through this panel and 15% of them were active in at least one assay; those are over-represented in the sample as a whole.
Give growth inhibition for every item shown.
Write the number in % without appending the unit.

Fill blank: measured growth inhibition of the molecule CCCCNC1CCC2(SCCS2)c2[nH]c3ccccc3c21 (centres undefined) is ____.
88.2

// growth inhibition lookup, key: O=c1ccc2ccccc2c2ccccc12
90.6

If you can, please state the reported growth inhibition value of Brc1ccccc1-c1ncc(-c2ccccc2)o1 .
71.2

If you can, please state the reported growth inhibition value of Nc1cc(N)c(N=Nc2cccc3c(S(=O)(=O)O)cccc23)cc1N=Nc1cc([N+](=O)[O-])ccc1O .
70.8
